This collection of values is drawn from paper PMC7619385.

ASSAY TARGET: LmxCLK1 (Leishmania mexicana, UniProt E9AMP2)
Sequence (E9AMP2 1-422): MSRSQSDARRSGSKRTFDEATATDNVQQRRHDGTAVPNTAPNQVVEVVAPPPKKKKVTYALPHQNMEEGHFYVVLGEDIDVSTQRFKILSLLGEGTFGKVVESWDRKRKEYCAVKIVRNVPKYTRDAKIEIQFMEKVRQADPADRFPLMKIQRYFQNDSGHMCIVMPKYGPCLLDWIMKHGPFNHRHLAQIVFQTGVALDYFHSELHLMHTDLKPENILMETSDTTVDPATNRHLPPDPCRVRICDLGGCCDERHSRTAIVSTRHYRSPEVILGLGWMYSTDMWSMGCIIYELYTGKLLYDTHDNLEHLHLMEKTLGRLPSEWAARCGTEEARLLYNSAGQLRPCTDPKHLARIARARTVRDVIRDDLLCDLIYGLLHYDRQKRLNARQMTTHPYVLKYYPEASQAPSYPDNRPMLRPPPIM
EXPERIMENTAL PROTOCOL: biochemical
Type: binding
RUN CONDITIONS: DSF, 10 µM compound, 2 µM LmxCLK1, Run 1; read-out: ΔTm Run 1
Structures can show the parent of a compound that is named as a salt.
Field 'label' (enum: True / False). Set to True when ΔTm at 10 µM is strictly under 0.1 °C; else False.

[
  {
    "MOLECULE": "Cc1nc(Nc2[nH]nc3c2CN(C(=O)N[C@H](CN(C)C)c2ccccc2)C3(C)C)c2sccc2n1",
    "ASSAY TARGET": "LmxCLK1 (Leishmania mexicana, UniProt E9AMP2)",
    "LABEL VALUE": "False"
  },
  {
    "MOLECULE": "C=CC(=O)Nc1cccc(Oc2nc(Nc3ccc(N4CCN(C)CC4)cc3OC)ncc2Cl)c1",
    "ASSAY TARGET": "LmxCLK1 (Leishmania mexicana, UniProt E9AMP2)",
    "LABEL VALUE": "True"
  },
  {
    "MOLECULE": "Cc1cc(Nc2nc(N[C@@H](C)c3ccc(F)cc3)c(C#N)cc2F)[nH]n1",
    "ASSAY TARGET": "LmxCLK1 (Leishmania mexicana, UniProt E9AMP2)",
    "LABEL VALUE": "False"
  },
  {
    "MOLECULE": "COc1ccc(S(=O)(=O)N(C(C)=O)c2ccccc2/C=C/c2cc[n+]([O-])cc2)cc1",
    "ASSAY TARGET": "LmxCLK1 (Leishmania mexicana, UniProt E9AMP2)",
    "LABEL VALUE": "False"
  },
  {
    "MOLECULE": "C[C@@H]1CN(CC(=O)Nc2ccc3c(c2)Cc2cccc(-c4cc(=O)cc(N5CCOCC5)o4)c2S3)C[C@H](C)O1",
    "ASSAY TARGET": "LmxCLK1 (Leishmania mexicana, UniProt E9AMP2)",
    "LABEL VALUE": "True"
  },
  {
    "MOLECULE": "Cc1ncc(-c2ccnc(Nc3ccc(S(C)(=O)=O)cc3)n2)n1C(C)C",
    "ASSAY TARGET": "LmxCLK1 (Leishmania mexicana, UniProt E9AMP2)",
    "LABEL VALUE": "False"
  },
  {
    "MOLECULE": "CNc1nc(Nc2cn(C(C)(C)C#N)nc2C)ncc1C(F)(F)F",
    "ASSAY TARGET": "LmxCLK1 (Leishmania mexicana, UniProt E9AMP2)",
    "LABEL VALUE": "True"
  },
  {
    "MOLECULE": "O=c1cc(N2CCOCC2)oc2c(-c3ccccc3)cccc12",
    "ASSAY TARGET": "LmxCLK1 (Leishmania mexicana, UniProt E9AMP2)",
    "LABEL VALUE": "False"
  },
  {
    "MOLECULE": "O=C(NC1CCNCC1)c1[nH]ncc1NC(=O)c1c(Cl)cccc1Cl",
    "ASSAY TARGET": "LmxCLK1 (Leishmania mexicana, UniProt E9AMP2)",
    "LABEL VALUE": "False"
  },
  {
    "MOLECULE": "O=C(Nc1cc(C(F)(F)F)cc(C(F)(F)F)c1)c1cc(Cl)ccc1O",
    "ASSAY TARGET": "LmxCLK1 (Leishmania mexicana, UniProt E9AMP2)",
    "LABEL VALUE": "False"
  },
  {
    "MOLECULE": "CCNc1nc(Nc2cc(F)c(C(=O)N3CCOCC3)cc2OC)ncc1C(F)(F)F",
    "ASSAY TARGET": "LmxCLK1 (Leishmania mexicana, UniProt E9AMP2)",
    "LABEL VALUE": "True"
  },
  {
    "MOLECULE": "O=C(Nc1cccc(Cl)c1)Nc1ncc(CCNc2ncnc3ccsc23)s1 [SNS-314 Mesylate]",
    "ASSAY TARGET": "LmxCLK1 (Leishmania mexicana, UniProt E9AMP2)",
    "LABEL VALUE": "False"
  },
  {
    "MOLECULE": "C[C@@H]1COC(Nc2ccc3ncnc(Nc4ccc(OCc5nccs5)c(Cl)c4)c3c2)=N1",
    "ASSAY TARGET": "LmxCLK1 (Leishmania mexicana, UniProt E9AMP2)",
    "LABEL VALUE": "False"
  },
  {
    "MOLECULE": "O=C1c2ccc(Nc3ccc(F)cc3F)cc2CCc2ccc(OC[C@H](O)CO)cc21 [Skepinone-L]",
    "ASSAY TARGET": "LmxCLK1 (Leishmania mexicana, UniProt E9AMP2)",
    "LABEL VALUE": "True"
  },
  {
    "MOLECULE": "CCc1nc(-c2cccc(C)c2)c(-c2ccnc(NC(=O)c3ccccc3)c2)s1",
    "ASSAY TARGET": "LmxCLK1 (Leishmania mexicana, UniProt E9AMP2)",
    "LABEL VALUE": "False"
  },
  {
    "MOLECULE": "Cc1c(Cn2c(C)nc3c(C(=O)O)cc(N4CCOCC4)cc32)cccc1C(F)(F)F",
    "ASSAY TARGET": "LmxCLK1 (Leishmania mexicana, UniProt E9AMP2)",
    "LABEL VALUE": "False"
  },
  {
    "MOLECULE": "Cc1nc(Nc2ncc(C(=O)Nc3c(C)cccc3Cl)s2)cc(N2CCN(CCO)CC2)n1",
    "ASSAY TARGET": "LmxCLK1 (Leishmania mexicana, UniProt E9AMP2)",
    "LABEL VALUE": "True"
  },
  {
    "MOLECULE": "O=c1c(O)c(-c2ccc(O)c(O)c2)oc2cc(O)cc(O)c12",
    "ASSAY TARGET": "LmxCLK1 (Leishmania mexicana, UniProt E9AMP2)",
    "LABEL VALUE": "False"
  },
  {
    "MOLECULE": "CN1CCN(c2nc(C3=C(c4c[nH]c5ccccc45)C(=O)NC3=O)c3ccccc3n2)CC1",
    "ASSAY TARGET": "LmxCLK1 (Leishmania mexicana, UniProt E9AMP2)",
    "LABEL VALUE": "False"
  },
  {
    "MOLECULE": "O=C(/C=C/c1ccc(O)c(O)c1)c1ccc(O)cc1O",
    "ASSAY TARGET": "LmxCLK1 (Leishmania mexicana, UniProt E9AMP2)",
    "LABEL VALUE": "True"
  },
  {
    "MOLECULE": "CO[C@@H](C(=O)N1Cc2n[nH]c(NC(=O)c3ccc(N4CCN(C)CC4)cc3)c2C1)c1ccccc1",
    "ASSAY TARGET": "LmxCLK1 (Leishmania mexicana, UniProt E9AMP2)",
    "LABEL VALUE": "False"
  },
  {
    "MOLECULE": "CN(C)CCOc1ccc(-c2nc(-c3ccncc3)c(-c3ccc4c(c3)CC/C4=N\\O)[nH]2)cc1",
    "ASSAY TARGET": "LmxCLK1 (Leishmania mexicana, UniProt E9AMP2)",
    "LABEL VALUE": "True"
  },
  {
    "MOLECULE": "O=c1c(-c2ccc(O)cc2)coc2cc(O)cc(O)c12",
    "ASSAY TARGET": "LmxCLK1 (Leishmania mexicana, UniProt E9AMP2)",
    "LABEL VALUE": "False"
  },
  {
    "MOLECULE": "[H]/N=C(/N)N/C(=N/[H])NCCc1ccccc1 [Phenformin HCl]",
    "ASSAY TARGET": "LmxCLK1 (Leishmania mexicana, UniProt E9AMP2)",
    "LABEL VALUE": "True"
  },
  {
    "MOLECULE": "COc1ccc(-c2ccc3c(N4CCOC[C@@H]4C)nc(N4CCOC[C@@H]4C)nc3n2)cc1CO",
    "ASSAY TARGET": "LmxCLK1 (Leishmania mexicana, UniProt E9AMP2)",
    "LABEL VALUE": "False"
  },
  {
    "MOLECULE": "Cc1ccc(C(=O)Nc2ccc(CN3CCN(C)CC3)c(C(F)(F)F)c2)cc1C#Cc1cnc2[nH]ncc2c1",
    "ASSAY TARGET": "LmxCLK1 (Leishmania mexicana, UniProt E9AMP2)",
    "LABEL VALUE": "False"
  },
  {
    "MOLECULE": "CCCS(=O)(=O)Nc1ccc(F)c(C(=O)c2c[nH]c3ncc(Cl)cc23)c1F",
    "ASSAY TARGET": "LmxCLK1 (Leishmania mexicana, UniProt E9AMP2)",
    "LABEL VALUE": "True"
  },
  {
    "MOLECULE": "COc1cc2ncnc(Oc3cccc(NC(=O)Nc4cc(C(C)(C)C(F)(F)F)on4)c3)c2cc1OC",
    "ASSAY TARGET": "LmxCLK1 (Leishmania mexicana, UniProt E9AMP2)",
    "LABEL VALUE": "True"
  },
  {
    "MOLECULE": "CS(=O)(=O)c1ccc(-c2cnc(N)c(C(=O)Nc3ccccc3)n2)cc1",
    "ASSAY TARGET": "LmxCLK1 (Leishmania mexicana, UniProt E9AMP2)",
    "LABEL VALUE": "True"
  },
  {
    "MOLECULE": "NC(=O)c1ncn([C@@H]2O[C@H](CO)[C@@H](O)[C@H]2O)c1N",
    "ASSAY TARGET": "LmxCLK1 (Leishmania mexicana, UniProt E9AMP2)",
    "LABEL VALUE": "True"
  }
]
